The entries below come with measured growth values attached.
System: NCI-H226 lung
experimentDescription: NCI-60 one-dose screen, 48 h (100 = growth as untreated, 0 = no growth, -100 = all killed)
conditionParameters: 10 µM
Protocol: Growth inhibition of the NCI-H226 human Non-Small Cell Lung tumor cell line is measured as a screen for anti-cancer activity. Cells are grown in 96 well plates and exposed to the test compound for 48 hours. Compounds are tested at a single concentration, which is 10^-5 M for most compounds. The reported endpoint is percent growth (GI% or GIPRCNT), where numbers from 0 - 100% represent growth inhibition, and numbers from -100% - 0 represent cell death. […]
The panel holds about 83,000 compounds, 20% with a hit somewhere; the sample as a whole holds those more often.

# structureSmilesString, measuredOn, unitOfMeasurement, growth
data = [
    ("NC(N)=N/N=C(\\N=Nc1ccccc1)c1ccc(Cl)cc1", "NCI-H226 lung", "%", 82.3),
    ("Clc1ccc(Cc2ccncc2)cc1", "NCI-H226 lung", "%", 109),
    ("O=C(CCCCCCC(=O)Nc1ccccc1)NO", "NCI-H226 lung", "%", 48.9),
    ("Cc1cc(=O)n2nnc3cc(C(F)(F)F)ccc3n12", "NCI-H226 lung", "%", 115),
    ("CCn1c(SCc2ccc(C)cc2)nnc1-c1nn(-c2ccc(Cl)cc2Cl)c(-c2ccc(Cl)cc2)c1C", "NCI-H226 lung", "%", 11.6),
    ("O=C(N/N=C/c1ccc([N+](=O)[O-])cc1)c1ccccc1Nc1cccc(C(F)(F)F)c1", "NCI-H226 lung", "%", 95.2),
]

* * *

The entries below come with measured growth values attached.
Test system: HOP-62 NSCLC
experimentDescription: NCI-60 one-dose screen, 48 h (100 = growth as untreated, 0 = no growth, -100 = all killed)
conditionParameters: 10 µM
The panel holds about 83,000 compounds, 20% with a hit somewhere; the sample as a whole holds those more often.

# molecule, growth, %
records = [
    ("O=C(/C=C/C=C/c1c(C2CC2)nc2ccccc2c1-c1ccc(F)cc1)c1cccs1", 24.2),
    ("COc1ccc(C(=O)N2C=Cc3ccccc3C2C#N)cc1 (stereo unspecified)", 89.4),
    ("NC1=NC(c2ccccc2)C2=C(N1)/C(=C/c1ccccc1)CCC2 (stereo unspecified)", 114),
    ("CC1C(=NC(=O)c2cnccn2)C(C)C(c2ccc(Cl)cc2)NC1c1ccncc1 (stereo unspecified)", 97.7),
    ("CCOC(=O)c1cc(C(=O)c2ccc(Cl)cc2)n2ccc(-c3cc[n+](CC(=O)c4ccc(OC)cc4)cc3)cc12", 87.7),
    ("COc1cc(/C=C2\\CCCC3=C2N=C2SC(C)=CN2C3c2cc(OC)c(OC)c(OC)c2)cc(OC)c1OC (stereo unspecified)", -19.6),
    ("COc1cc2cc(Oc3ccc(NC(=O)Nc4ccc(Cl)c(Cl)c4)cc3)c(C)nc2cc1OC", 55.2),
    ("NC(=O)c1cccc(-n2ccc3cc(NC(=O)Nc4ccc(Cl)c(C(F)(F)F)c4)ccc32)n1", 86.5),
    ("Cc1c(O)c(=O)ccn1C1CCC(CC2CCC(n3ccc(=O)c(O)c3C)CC2)CC1 (stereo unspecified)", 36.2),
    ("COc1cccc(C2C(C#N)=C(N)Oc3cc(N)ccc32)c1 (stereo unspecified)", 45.4),
    ("COc1ccc(/C=C2\\CCCC3=C2NC(N)=NC3c2ccc(OC)c(OC)c2)cc1OC (stereo unspecified)", 57),
    ("CCN(CC)CCCC(C)Nc1c2ccc(Cl)cc2nc2ccc(OC)cc12 (stereo unspecified)", 3.18),
    ("O=C1c2ccccc2C(=O)c2c1ccc(C(Br)Br)c2Cl", 96),
    ("CCCCN1C(=O)CC(SC2CC(=O)N(CCCC)C2=O)C1=O (stereo unspecified)", 106),
    ("O=C(Nc1ccc(OCc2nnc(-c3ccc(Cl)cc3)o2)c(F)c1)Nc1ccc(Cl)c(C(F)(F)F)c1", 16.6),
    ("C/C=C/CSC(C)(C)C(=O)NC", 89.7),
    ("COc1cc(C2C(C#N)=C(N)Oc3cc(O)ccc32)cc(OC)c1OC (stereo unspecified)", 53.2),
    ("COc1ccc(/C=C2\\CCCC3=C2N=C2SC(C)=CN2C3c2ccc(OC)cc2)cc1 (stereo unspecified)", 104),
    ("Cc1ccc(C2NC(=S)N3C(c4ccc(C)cc4)NC(=S)N23)cc1 (stereo unspecified)", -45.6),
    ("CNS(=O)(=O)Oc1ccc(-c2ccc3occc3c2)cc1", 102),
    ("O=[N+]([O-])c1ccc(/C(=C/c2ccccc2)[n+]2ccccc2)cc1", 110),
]

* * *

Test system: SN12C renal
experimentDescription: NCI-60 one-dose screen, 48 h (100 = growth as untreated, 0 = no growth, -100 = all killed)
conditionParameters: 10 µM
Procedure: Growth inhibition of the SN12C human tumor cell line is measured as a screen for anti-cancer activity. Cells are grown in 96 well plates and exposed to the test compound for 48 hours. Compounds are tested at a single concentration, which is 10^-5 M for most compounds. The reported endpoint is percent growth (GI% or GIPRCNT), where numbers from 0 - 100% represent growth inhibition, and numbers from -100% - 0 represent cell death. For example, a value of 40 represents 60% growth inhibition. […]
The panel holds about 83,000 compounds, 20% with a hit somewhere; the sample as a whole holds those more often.
The entries below come with measured growth values attached.

# compound, growth / %
rows = [
    ("CC1/C=C/C=C/C=C/C=C/C=C/C=C/C=C/C(O[C@@H]2O[C@H](C)[C@H](O)[C@@H](O)[C@@H]2N)CC(O)C(C(=O)O)C(O)CC(=O)CC(O)CC(O)CC(O)CC(=O)CCCC(=O)CC(=O)OC1C(C)CC(C)C(O)CC(=O)c1ccc(N)cc1 (some centres undefined)", -93.4),
    ("O=[N+]([O-])c1cc(Cl)cc(Cl)c1O", 101),
    ("O=C(Nc1cc([N+](=O)[O-])c2[nH]c(=O)c3ccccc3c2c1)C(F)(F)F", 76.8),
    ("N#Cc1c(N)nc(-c2cc(F)cc(C(F)(F)F)c2)nc1-c1ccccc1F", 24.9),
    ("CCCC1(CN2c3ccccc3Sc3ccc(Cl)cc32)CCN(CC)C1 (centres undefined)", 23.1),
    ("O=C(N/N=C/c1ccc(Cl)cc1)c1ccccc1Nc1cccc(C(F)(F)F)c1", 91.3),
    ("CN(C)CCCOc1ccccc1NC1=C(Cl)C(=O)C(Nc2ccccc2OCCCN(C)C)=C(Cl)C1=O", -86.7),
    ("COc1ccc2nc3cc(Cl)ccc3c(Nc3cc(CN4CCCC4)c(O)c(CN4CCCC4)c3)c2n1", 10.7),
    ("CCOC(=O)c1cc(C(=O)c2ccc(OC)c(OC)c2)n2c1ccc1ccc3cccnc3c12", 62.1),
    ("CNC(=O)c1cn2c3c(c(N4CCN(C)CC4)c(F)cc3c1=O)OC[C@@H]2C", 104),
    ("COc1ccc2c(c1)C(CC(=O)NN)CCC2 (centres undefined)", 104),
    ("O=C1NC(=O)c2c(CCCSc3nc4ccccc4c(=O)n3CCc3ccccc3)cccc21", 91.7),
    ("CCOC(=O)c1sc2ncnc(Nc3ccc4c(cnn4C(=O)Nc4ccc(C)c(Cl)c4)c3)c2c1C", 96.5),
    ("CCN1C(=O)CC(SC2CC(=O)N(CC)C2=O)C1=O (centres undefined)", 98.6),
    ("CCN(CCCNc1cc2c(c(N)c1S(=O)(=O)O)C(=O)c1ccccc1C2=O)c1ccccc1", 87.4),
    ("N#Cc1c(-c2ccc(Cl)cc2)cc(-c2cc(O)ccc2O)nc1N", -2.03),
    ("COc1cc2cc(Oc3ccc(NC(=O)Nc4ccc(Cl)c(C(F)(F)F)c4)cc3)c(C)nc2cc1OC", 13.2),
    ("C#C[C@]1(O)CCC2C3CCc4cc(OC5CCCC5)ccc4C3CC[C@@]21C (some centres undefined)", 70.9),
    ("CC(C)c1cc(N=O)cc(C(C)C)c1O", 94.2),
]

* * *

The entries below come with measured growth values attached.
Test system: CCRF-CEM leukemia
experimentDescription: NCI-60 one-dose screen, 48 h (100 = growth as untreated, 0 = no growth, -100 = all killed)
conditionParameters: 10 µM
About 83,000 compounds went through this panel and 20% of them were active in at least one assay; those are over-represented in the sample as a whole. The source made the active and inactive calls. The calls were made as follows: active = growth percent below 10; inactive = the rest.

# compound, measuredOn, growth
rows = [
    ("O=C(CSc1nccc(Nc2cccc3ccccc23)n1)c1ccc(Cl)cc1", "CCRF-CEM leukemia", "83.1% (inactive)"),
    ("COc1ccc(C2CC(c3cc(OC)c(OC)c(OC)c3)=NN2)cc1 (stereo not given)", "CCRF-CEM leukemia", "57.3% (inactive)"),
    ("CCOC(=O)c1cc(C(=O)c2cc(OC)c(OC)c(OC)c2)n2ccc(-c3cc[n+](CC(=O)c4cc(OC)c(OC)c(OC)c4)cc3)cc12", "CCRF-CEM leukemia", "-15% (active)"),
    ("COc1ccc(-c2n[nH]nc2-c2cc(OC)c(OC)c(OC)c2)cc1", "CCRF-CEM leukemia", "9.31% (active)"),
    ("Cc1cc(CCNC=O)c(C)c2c1sc1ccccc12", "CCRF-CEM leukemia", "84% (inactive)"),
    ("CCc1cc(Cl)c(OC)c(C(=O)NCC2CCCN2CC)c1O (stereo not given)", "CCRF-CEM leukemia", "96% (inactive)"),
    ("O=C1Cc2cc(CCN3CCN(c4nsc5ccccc45)CC3)c(Cl)cc2N1", "CCRF-CEM leukemia", "9.84% (active)"),
    ("O=C(Nc1cccc2c1CCCC2)c1cc2ccccc2cc1O", "CCRF-CEM leukemia", "20.9% (inactive)"),
    ("C/C=C/C1=CN2C(=O)c3cc(OC4OC(C)C(NC)C(C)(O)C4O)c(C)c(O)c3N=C[C@@H]2C1 (stereo not given in full)", "CCRF-CEM leukemia", "1.22% (active)"),
    ("COc1cc2cc(Oc3ccc(NC(=O)c4ccc(Cl)c(C(F)(F)F)c4)cc3)c(C)nc2cc1OC", "CCRF-CEM leukemia", "19.9% (inactive)"),
]

These data points were gathered from PubChem BioAssay (NCI).
